Provide the reported IC50 of each item.
Target: Tyrosine-protein kinase JAK2 (Homo sapiens)
Assay: JAK2V617F kinase, IRF1 reporter and Ba/F3 cytotoxicity panel, late-stage follow-up, HEL and Ba/F3 cells (AID 2165)
Details: HEL, irf1 reporter
Activity calls are given as the source filed them. Cut-off read from the data, not from the text of the source: active = IC50 below about 9 µM; inactive = the rest.

1) Cc1cccc(CS(=O)(=O)c2nnc([C@H](Cc3ccccc3)NC(=O)OC(C)(C)C)o2)c1
11.6 µM
2) CCCc1nc2ccccc2c(=O)n1/N=C/c1ccc(O)c(O)c1
13.1 µM
3) COC(=O)COc1cccc2c(=O)n(CC(=O)NCc3ccc(F)cc3)ccc12
7.33 µM

// each listed compound needs a value for IC50
1. COc1ccc(Cl)cc1NC(=O)NC(C)c1ccncc1 (stereo unspecified)
2. CC(C)(C)/C(O)=C/c1nc2cc(Cl)ccc2oc1=O
3. COc1cc2ncnc(N[C@H](C)c3ccccc3)c2cc1OC
4. Cc1cccc(N(Cc2ccccc2)C(=O)CCl)c1
5. COc1cc(C=C(C#N)C(N)=O)cc(CSc2ccccc2)c1O
6. c1ccc(CCNc2nc(-c3ccccn3)nc3ccccc23)cc1
7. Cc1cccc(NC(=O)c2ccc([N+](=O)[O-])o2)c1
8. Cc1ccc(Nc2nc(N)nc(CCl)n2)cc1

Response:
1: > 40 µM (inactive); 2: 12.6 µM; 3: 13.1 µM; 4: 4.76 µM; 5: > 40 µM (inactive); 6: 2.88 µM; 7: 10.5 µM; 8: 5.6 µM

* * *

Target: Tyrosine-protein kinase JAK2 (Homo sapiens) (UniProt O60674)
Sequence (O60674 whole entry, looked up, change not shown): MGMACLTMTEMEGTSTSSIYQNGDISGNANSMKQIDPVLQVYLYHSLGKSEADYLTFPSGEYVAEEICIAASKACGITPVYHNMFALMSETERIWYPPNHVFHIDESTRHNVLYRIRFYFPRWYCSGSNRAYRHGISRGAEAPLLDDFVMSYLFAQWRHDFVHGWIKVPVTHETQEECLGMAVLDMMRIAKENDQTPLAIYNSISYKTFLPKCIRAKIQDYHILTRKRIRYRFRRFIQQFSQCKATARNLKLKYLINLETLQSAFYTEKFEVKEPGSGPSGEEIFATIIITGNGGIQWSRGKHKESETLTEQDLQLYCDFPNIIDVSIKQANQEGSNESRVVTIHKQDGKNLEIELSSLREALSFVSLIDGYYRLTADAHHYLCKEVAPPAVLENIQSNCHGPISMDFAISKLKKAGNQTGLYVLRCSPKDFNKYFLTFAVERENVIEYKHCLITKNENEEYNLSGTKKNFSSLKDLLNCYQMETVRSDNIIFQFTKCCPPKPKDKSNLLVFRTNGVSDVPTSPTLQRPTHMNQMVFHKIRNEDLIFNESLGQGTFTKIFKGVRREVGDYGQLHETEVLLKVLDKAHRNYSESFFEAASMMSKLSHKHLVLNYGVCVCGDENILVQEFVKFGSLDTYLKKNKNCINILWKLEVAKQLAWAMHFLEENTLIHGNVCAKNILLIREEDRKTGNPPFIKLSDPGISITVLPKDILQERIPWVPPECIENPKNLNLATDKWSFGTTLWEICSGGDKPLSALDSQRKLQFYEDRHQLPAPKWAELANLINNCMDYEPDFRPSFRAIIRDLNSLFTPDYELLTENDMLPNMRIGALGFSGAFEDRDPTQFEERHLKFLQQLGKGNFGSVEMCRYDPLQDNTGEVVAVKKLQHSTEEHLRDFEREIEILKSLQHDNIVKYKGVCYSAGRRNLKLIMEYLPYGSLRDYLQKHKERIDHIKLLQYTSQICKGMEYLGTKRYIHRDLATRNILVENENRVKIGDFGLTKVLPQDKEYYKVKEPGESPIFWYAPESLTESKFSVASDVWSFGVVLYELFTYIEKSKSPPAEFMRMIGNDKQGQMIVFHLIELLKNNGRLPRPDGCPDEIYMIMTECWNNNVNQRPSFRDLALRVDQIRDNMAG
Assay: JAK2V617F kinase, IRF1 reporter and Ba/F3 cytotoxicity panel, late-stage follow-up, HEL and Ba/F3 cells (AID 2165)
Details: HEL, irf1 reporter
The source made the active and inactive calls. Rule as the data show it: active = IC50 below about 9 µM; inactive = the rest.
# output must be one of 1.0 (active), 0.0 (inactive)

Query: Given `CC(C)(C)c1cc(NC(=O)CCl)n(-c2ccccc2)n1` , state the outcome it received in this test.
Response: 1.0

Query: Repeat for the following molecule: `COc1ccc([N+](=O)[O-])c(S(=O)(=O)c2ccc(Cl)cc2)n1`
Response: 1.0

Query: Repeat for the following molecule: `Cc1[nH]c(=O)c(C(=O)C=Cc2ccc(Br)cc2)c2c1CCCC2`
Response: 1.0

Query: Repeat for the following molecule: `Cc1cc(SCC(=O)N/N=C/c2ccc(O)c(O)c2)c(C)cc1Br`
Response: 0.0

Query: Repeat for the following molecule: `COc1cc(/C=C(\C#N)C(N)=O)cc(CSc2nc3ccccc3s2)c1O`
Response: 1.0

Query: Repeat for the following molecule: CCOc1ccc(C(=O)C(CN2CCOCC2)c2ccccc2)cc1 (configuration not stated)
Response: 1.0

Query: Repeat for the following molecule: `O=C1/C(=C/c2ccc(O)c(O)c2)SC(=S)N1Nc1ccccc1`
Response: 1.0

Query: Repeat for the following molecule: `N#Cc1ccccc1NC(=O)COc1ccc2c(c1)OCO2`
Response: 0.0

Query: Repeat for the following molecule: `COc1cc(/C=C2\COC/C(=C\c3ccc(O)c(OC)c3)C2=O)ccc1O`
Response: 1.0

Query: Repeat for the following molecule: COc1cccc(F)c1C(C[N+](=O)[O-])c1c(N)n(C)c(=O)n(C)c1=O (configuration not stated)
Response: 1.0

Query: Repeat for the following molecule: CCC(C)Nc1ncnc2cc(OC)c(OC)cc12 (configuration not stated)
Response: 0.0

Query: Repeat for the following molecule: `COc1cc2ncc(-c3ccccc3)nc2cc1OC`
Response: 1.0

Query: Repeat for the following molecule: `C/C(=C\c1ccccc1F)C(=O)c1c(C)cc(C)[nH]c1=O`
Response: 1.0

Query: Repeat for the following molecule: `O=C(Nc1cccc(NC(=O)c2cccs2)c1)c1ccc([N+](=O)[O-])o1`
Response: 1.0

Query: Repeat for the following molecule: `COc1ccc2nc(C)cc(Sc3nc4ccccc4s3)c2c1`
Response: 1.0

Query: Repeat for the following molecule: `COc1ccc(Nc2nc(N)nc(CCl)n2)cc1`
Response: 1.0

Query: Repeat for the following molecule: `COc1cc2ncnc(Nc3ccc(OC(F)(F)F)cc3)c2cc1OC`
Response: 1.0

Query: Repeat for the following molecule: `CC(C)[C@@H](CO)Nc1nc(Nc2cccc(Cl)c2)c2ncn(C(C)C)c2n1`
Response: 1.0

Query: Repeat for the following molecule: `O=c1oc2ccc(Cl)cc2nc1/C=C(\O)c1ccco1`
Response: 1.0

Query: Repeat for the following molecule: `Nc1nc(N)c2nc(-c3ccccc3)c(N)nc2n1`
Response: 0.0

Query: Repeat for the following molecule: `O=C1C=CC(=O)N1CCNc1ncc(C(F)(F)F)cc1Cl`
Response: 1.0

Query: Repeat for the following molecule: `Nc1nc(CCl)nc(N(c2ccccc2)c2ccccc2)n1`
Response: 1.0

* * *

Molecular target: UniProtKB O60674
Assay: JAK2V617F kinase, IRF1 reporter and Ba/F3 cytotoxicity panel, late-stage follow-up, HEL and Ba/F3 cells (AID 2165)
Settings: Ba/F3, irf1 reporter
Activity calls are given as the source filed them. Cut-off read from the data, not from the text of the source: active = IC50 below about 9 µM; inactive = the rest.
# output must be one of y for active, n for inactive

Some solved entries appear below for comparison.
1. Cc1ccc(NC(=O)C(=Cc2ccc(C(=O)O)cc2)C(=O)Nc2ccc(C)cc2C)c(C)c1
y
2. COc1ccc2nc(C)cc(Sc3nc4ccccc4s3)c2c1
y
3. CCN1C/C(=C/c2ccc(OC)c(O)c2)C(=O)/C(=C/c2ccc(OC)c(O)c2)C1
y
4. O=C(CCl)N(C/C=C/c1ccccc1)c1ccc2c(c1)OCCO2
y
5. Cc1c(Cc2ccccc2)c(=O)oc2c(O)c(O)ccc12
y
6. O=C1C=CC(=O)N1CCNc1ncc(C(F)(F)F)cc1Cl
y
7. N#C/C(=C\c1ccc(O)c(O)c1)C(=O)NCCc1ccccc1
y
8. Cc1cccc(OCC(=O)Nc2cc(C)ccc2O)c1
y
9. CCCOc1ccc(C(=O)C(CN2CCOCC2)c2ccccc2)cc1 (stereo not given)
n

Consider the record given below.
Query: Given `CC(C)(C)OC(=O)N[C@@H](Cc1ccccc1)c1nnc(S(=O)(=O)Cc2cccc(F)c2)o1` , state the outcome it received in this test.
Response: y

* * *

Biological target: Tyrosine-protein kinase JAK2 (Homo sapiens)
Test: JAK2V617F kinase, IRF1 reporter and Ba/F3 cytotoxicity panel, late-stage follow-up, HEL and Ba/F3 cells (AID 2165)
Conditions: HEL, irf1 reporter
The source made the active and inactive calls. No stated cut-off is given here; in the data, active means IC50 below about 9 µM; inactive means the rest.
# output must be one of active, inactive

1. Cc1ccccc1CS(=O)(=O)c1nnc([C@H](Cc2ccccc2)NC(=O)OC(C)(C)C)o1
active
2. COc1cc2ncnc(Nc3ccc(O)c(Br)c3)c2cc1OC
active

Consider the record given below.
Query: Given `CCCn1c(CN(C)Cc2ccccc2)nc2c1c(=O)n(C)c(=O)n2C` , state the outcome it received in this test.
Response: inactive

* * *

Biological target: Tyrosine-protein kinase JAK2 (Homo sapiens) (UniProt O60674)
Assay: JAK2V617F kinase, IRF1 reporter and Ba/F3 cytotoxicity panel, late-stage follow-up, HEL and Ba/F3 cells (AID 2165)
Conditions: HEL, irf1 reporter
The source made the active and inactive calls. No stated cut-off is given here; in the data, active means IC50 below about 9 µM; inactive means the rest.
# output must be one of class 1 for active, class 0 for inactive

Some solved entries appear below for comparison.
1. N#CC(C#N)=Cc1cc(O)c(O)c(I)c1
class 1
2. O=C(NC1C=CS(=O)(=O)C1)c1sc2ccccc2c1Cl (stereo unspecified)
class 0
3. Cc1[nH]c(=O)c(C(=O)C=Cc2ccc(I)cc2)c2c1CCCC2
class 1
4. CN(C)C(=S)SSC(=S)N(C)C
class 1
5. O=C(NCCc1cccnc1)C1CCC(=O)N(CCc2cccc(F)c2)C1 (stereo unspecified)
class 0

Query: Given `CS(=O)(=O)c1nc(-c2ccco2)cc(C(F)(F)F)n1` , state the outcome it received in this test.
Response: class 1

* * *

Molecular target: Tyrosine-protein kinase JAK2 (Homo sapiens) (UniProt O60674)
Experiment: JAK2V617F kinase, IRF1 reporter and Ba/F3 cytotoxicity panel, late-stage follow-up, HEL and Ba/F3 cells (AID 2165)
Conditions: Ba/F3, irf1 reporter
Calls of active or inactive are those of the source. No stated cut-off is given here; in the data, active means IC50 below about 9 µM; inactive means the rest.
Provide the reported IC50 of each item.

Example compounds with recorded IC50:
1. CCN(CC)S(=O)(=O)c1cccc(-n2c(O)c(C=Nc3ccccc3C(=O)O)c3ccccc3c2=O)c1
> 40 µM (inactive)
2. CCCn1c(CC)nc([N+](=O)[O-])c1S(=O)(=O)c1ccccc1
4.37 µM
3. Cc1cccc(CS(=O)(=O)c2nnc([C@H](Cc3ccccc3)NC(=O)OC(C)(C)C)o2)c1
1.39 µM

// each listed compound needs a value for IC50
1. Cc1cc2ncc(-c3ccc(O)c(O)c3)nc2cc1C
2. C/C(=C\c1ccc(N(C)C)cc1)[N+](=O)[O-]

Response:
0.104 µM
2.65 µM

// each listed compound needs a value for IC50
1. Cc1nc2c(=O)n(C)c(=O)n(C)c2nc1Cl
2. Cc1cccc(NC(=O)c2ccc([N+](=O)[O-])o2)c1
3. COc1ccccc1N(C(=O)CCl)c1cn(C(C)=O)c2ccccc12
4. O=C(Nc1cccc2c1[nH]c1ccccc12)C(F)(F)F
5. C#CCSc1nsc(SCC#C)c1C#N
6. Nc1nc(CCl)nc(N(c2ccccc2)c2ccccc2)n1
7. CN(c1ccccc1)S(=O)(=O)c1cccc(C(=O)NCCc2ccc(O)c(O)c2)c1

Response:
["1.97 µM", "6.3 µM", "2.17 µM", "18.9 µM", "6.71 µM", "14.3 µM", "3.02 µM"]
